# assayProcedure: Cytotoxicity in the anti-HCMV assay (MRC-5 cell line)
# Format: cell-based
# conditionLabel: human, mrc-5 cells
parameter: CC50

The compound listed as Nc1nc(O)c2ncn(COC(CO)CO)c2n1 [Ganciclovir, ganciclovir] shows CC50 equal to > 1000 µg/mL

----------
# Tested on: HCMV strain AD-169
# assayProcedure: Anti-HCMV activity, AD-169 strain in MRC-5 cell line
# Type: cell-based, human cytomegalovirus
# conditionLabel: Human betaherpesvirus 5, AD169, MRC5; HCMV AD-169 in MRC-5 cell line; polynucleotide concentration based on average molecular weight of 100,000 daltons; read-out: ED50 (50% effective dose)
parameter: EC50 (µM)
Give the quantity in µM, number only.

Here Nc1nc(O)c2ncn(COC(CO)CO)c2n1 was tested on HCMV strain AD-169, and its EC50 came to 9.4
